The measured values listed here are drawn from ChEMBL document CHEMBL1201862.

System: EKVX
Assay protocol: NCI tumour cell line growth inhibition, 48 h
Calls of active or inactive are those of the source. No stated cut-off is given here; in the data, active = GI50 up to about 1.1 µM and inactive = higher.
// allowed return values: 1 for active, 0 for inactive

[O-]c1on[n+]2c1c(Nc1ccc(Cl)cc1)nc1ccccc12	0
CCOC(=O)C1S/C(=N\c2ccc(C)c(C)c2)N=C1C (stereo unspecified)	0
O=C1c2cscc2C(=O)c2c(OCc3ccccc3)ccc(OCc3ccccc3)c21	0
Nc1ccc2nc3ccc(N)cc3[n+](-c3ccccc3)c2c1	0
O=C1N(CN2CCOCC2)CN(CN2CCOCC2)C(=O)N1Cc1ccccc1	0

Dear all, I need the recorded test outcome for O=C(CSc1nc2ccc([N+](=O)[O-])cc2s1)c1ccc2ccccc2c1 , thank you. 0

Dear all, I need the recorded test outcome for Nc1ccc(C(=O)NN2C(=O)C(Cl)C2c2ccc(O)cc2)cc1 (stereo unspecified) , thank you. 0

Dear all, I need the recorded test outcome for CCOC(=O)C1=C(c2ccccc2)C12N(Cc1ccccc1)C(=O)C2(c1ccccc1)c1ccccc1 (stereo unspecified) , thank you. 0
